# Measurement Notes: chemical genetic growth profiling, strain panel (AID 1159580);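 note: tested at 20 µM; growth read once vehicle control cultures reached saturation at 30 °C; 1 = growth at the plate median or of vehicle wells; lower values mean less growth of the strain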
# Setup Conditions: S. cerevisiae deletion strains, growth OD, locus YBR279W, strain paf1, stronger effect = lower value
Out of some 5,500 compounds screened, about 2,000 (36%) were called active. Roughly 18% stayed inconclusive and do not appear here. The list shows a part of the results.
Experimental Endpoint: normalized growth

O=c1cc[nH]c(=S)[nH]1 :: 0.997
C=C1C(=O)OC2CC1C(OC(C)=O)C/C(C)=C/CC/C(C)=C/CC[C@]2(C)O (some centres undefined) :: 0.996
CC(=O)OCC(OC(C)=O)C(OC(C)=O)C(OC(C)=O)C(OC(C)=O)C(COC(C)=O)OC(C)=O (centres undefined) :: 0.994
COc1ccc2c(c1)O[C@H]1c3ccc(OC)cc3OC[C@@H]21 :: 1.02
C=CCSCC1Nc2cc(Cl)c(S(N)(=O)=O)cc2S(=O)(=O)N1 (centres undefined) :: 1
CC(=O)OCC[C@H](C)CCC=C(C)C :: 0.997
COC(=O)C1=CCCN(C)C1 :: 1.02
Nc1ccn(C2O[C@H](CO)[C@@H](O)[C@@H]2O)c(=O)n1 (some centres undefined) :: 0.998
O=C1C=C2C=C[C@@H]3C[C@@]2(O1)[C@H]1CCCCN31 :: 1.01
CC1=CC2C(CC1=O)C(C)=CCC2C(C)C (centres undefined) :: 1
C[C@H]1COC2=C1C(=O)C(=O)c1c2ccc2c1CCCC2(C)C :: 0.725
C#CCCCCCCCCCCCC(O)CC(O)CO (centres undefined) :: 0.995
O=C(O)CN(CC(=O)O)Cc1cc2c(-c3ccccc3C(=O)O)c3cc(CN(CC(=O)O)CC(=O)O)c(=O)cc-3oc2cc1O :: 0.967
CCCCOC(=O)c1ccc(N)cc1 :: 0.897
O=c1[nH]oc2c1CCNC2 :: 1.01
O=C(O)c1ccccc1-c1c2cc(Br)c(=O)cc-2oc2[c]([Hg])c(O)c(Br)cc12 :: 0.594
CCOC(=O)[C@H](CCc1ccccc1)N[C@@H](C)C(=O)N1[C@H](C(=O)O)C[C@@H]2CCC[C@@H]21 :: 0.979
CCCCCCOc1ccccc1C(N)=O :: 0.934
C=C1C(=O)O[C@@H]2C3O[C@]3(C)CC/C=C(\C)CC[C@@H]12 (some centres undefined) :: 0.948
CCCCNc1ccc(C(=O)OCCN(C)C)cc1 :: 1.01
CCCOc1ccc(C(=O)OCCN(CC)CC)cc1N :: 1.01
O=c1cc(-c2ccccc2O)oc2cc(O)ccc12 :: 0.996
C[C@H]1CC[C@@H](C(C)(C)O)CC2=C1CC[C@@H]2C :: 0.996
NC(CO)C(=O)NNCc1ccc(O)c(O)c1O (centres undefined) :: 0.97
